- Target System: Gcr1 (UniProt P07261)
- Sequence: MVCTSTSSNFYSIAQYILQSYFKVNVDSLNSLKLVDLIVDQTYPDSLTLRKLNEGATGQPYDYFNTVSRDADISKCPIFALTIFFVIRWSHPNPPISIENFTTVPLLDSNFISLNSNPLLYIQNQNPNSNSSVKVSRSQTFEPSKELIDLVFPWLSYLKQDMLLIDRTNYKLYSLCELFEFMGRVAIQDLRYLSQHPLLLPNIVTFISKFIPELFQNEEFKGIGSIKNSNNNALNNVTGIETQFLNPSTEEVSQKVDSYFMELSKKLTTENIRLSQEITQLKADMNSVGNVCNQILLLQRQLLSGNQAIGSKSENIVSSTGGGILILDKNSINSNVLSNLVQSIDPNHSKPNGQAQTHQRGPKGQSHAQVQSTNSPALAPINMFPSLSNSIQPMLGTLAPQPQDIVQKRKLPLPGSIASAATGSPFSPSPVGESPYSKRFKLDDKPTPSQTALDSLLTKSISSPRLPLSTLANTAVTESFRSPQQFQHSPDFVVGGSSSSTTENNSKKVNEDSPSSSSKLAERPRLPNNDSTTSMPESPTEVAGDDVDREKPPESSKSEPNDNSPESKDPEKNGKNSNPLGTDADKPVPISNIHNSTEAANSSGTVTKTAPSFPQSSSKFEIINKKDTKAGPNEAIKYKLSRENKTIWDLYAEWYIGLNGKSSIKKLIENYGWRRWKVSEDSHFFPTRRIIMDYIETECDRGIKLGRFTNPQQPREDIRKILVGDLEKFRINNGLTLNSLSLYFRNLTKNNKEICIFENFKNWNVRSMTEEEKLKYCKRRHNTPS
- Assay Info: PBM E-score (8-mer binding enrichment) (E-score (-0.5 to 0.5)); higher = stronger / more preferred TF binding
- Condition Description: protein concentration: 100 nM; construct: GST-full length
Over roughly 33,000 sequences, “E-score (-0.5 to 0.5)” has its median near -0.011; the highest 2% begin near 0.28. For the sample, the highest values were picked, then their nearest neighbours and some sequences at random.
Test Readout: PBM E-score
Just the number, please.

Worked examples, 3 sequences total:
{"Entry Sequence": "CGAGCCAC", "Target System": "Gcr1 (UniProt P07261)", "Reported Result": -0.116}
{"Entry Sequence": "CCAGGCCG", "Target System": "Gcr1 (UniProt P07261)", "Reported Result": -0.117}
{"Entry Sequence": "CGTGGTGA", "Target System": "Gcr1 (UniProt P07261)", "Reported Result": -0.09}

input: Please give measured PBM E-score of the following entry: GAACCGGA
output: 0.183

input: Please give measured PBM E-score of the following entry: GATTTCAC
output: -0.0263

input: Please give measured PBM E-score of the following entry: TTAACCAA
output: -0.0373

input: Please give measured PBM E-score of the following entry: CTATGCTA
output: -0.075

input: Please give measured PBM E-score of the following entry: GGAGCCAA
output: 0.33

input: Please give measured PBM E-score of the following entry: ACGAAGAT
output: 0.00119

input: Please give measured PBM E-score of the following entry: ATCACTCC
output: -0.0513

input: Please give measured PBM E-score of the following entry: GGAACGGA
output: -0.0468

input: Please give measured PBM E-score of the following entry: ACACAATA
output: 0.0111

input: Please give measured PBM E-score of the following entry: AGAGCCAC
output: 0.13

input: Please give measured PBM E-score of the following entry: AGTCGAGC
output: -0.0406

input: Please give measured PBM E-score of the following entry: CTCGGGGC
output: -0.101

###

- Target System: Gcr1 (UniProt P07261)
- Sequence: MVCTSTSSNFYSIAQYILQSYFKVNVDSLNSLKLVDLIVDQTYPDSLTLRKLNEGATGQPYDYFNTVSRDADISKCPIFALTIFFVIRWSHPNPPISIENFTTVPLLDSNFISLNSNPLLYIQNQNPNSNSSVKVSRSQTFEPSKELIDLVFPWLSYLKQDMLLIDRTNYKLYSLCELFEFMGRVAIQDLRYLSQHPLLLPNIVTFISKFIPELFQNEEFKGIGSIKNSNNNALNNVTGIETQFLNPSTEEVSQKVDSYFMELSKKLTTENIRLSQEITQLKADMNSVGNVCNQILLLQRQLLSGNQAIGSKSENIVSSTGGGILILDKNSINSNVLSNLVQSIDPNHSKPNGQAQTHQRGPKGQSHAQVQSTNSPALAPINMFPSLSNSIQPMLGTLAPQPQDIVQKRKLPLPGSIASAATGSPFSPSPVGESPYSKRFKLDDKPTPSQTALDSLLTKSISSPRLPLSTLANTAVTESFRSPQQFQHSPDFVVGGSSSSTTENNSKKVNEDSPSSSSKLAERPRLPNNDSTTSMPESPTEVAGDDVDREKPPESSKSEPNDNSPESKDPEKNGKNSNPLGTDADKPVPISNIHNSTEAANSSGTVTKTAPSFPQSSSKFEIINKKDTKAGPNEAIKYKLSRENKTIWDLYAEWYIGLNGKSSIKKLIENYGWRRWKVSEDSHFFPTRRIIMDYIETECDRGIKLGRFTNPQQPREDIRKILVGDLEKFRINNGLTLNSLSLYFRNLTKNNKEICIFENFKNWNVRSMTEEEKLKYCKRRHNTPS
- Assay Info: PBM E-score (8-mer binding enrichment) (E-score (-0.5 to 0.5)); higher = stronger / more preferred TF binding
- Condition Description: protein concentration: 100 nM; construct: GST-full length
Whole data set: some 33,000 sequences, median “E-score (-0.5 to 0.5)” near -0.011, cut for the highest 2% near 0.28. This is one part of a sample in which the highest values are shown more often than they occur.
Each record's PBM E-score is compared with low: < -0.05; middle: ≥ -0.05 and < 0.03; high: ≥ 0.03 to give its class.

Example cases with answers are listed next.
{"Entry Sequence": "TAGTCTGA", "Label": "low"}
{"Entry Sequence": "ACTAACCA", "Label": "high"}
{"Entry Sequence": "AAGTTCGA", "Label": "high"}
{"Entry Sequence": "CAGAAGAA", "Label": "high"}
{"Entry Sequence": "ACGGAGCT", "Label": "low"}

input: Class? Entry: TCCCTCAA
output: middle

input: Class? Entry: AGGCTTGG
output: high

input: Class? Entry: AATAAGAT
output: middle

input: Class? Entry: CTGGTCGA
output: low

input: Class? Entry: CTGCACAG
output: middle

input: Class? Entry: AAGAAAAT
output: high

###

- Target System: Gcr1 (UniProt P07261)
- Sequence: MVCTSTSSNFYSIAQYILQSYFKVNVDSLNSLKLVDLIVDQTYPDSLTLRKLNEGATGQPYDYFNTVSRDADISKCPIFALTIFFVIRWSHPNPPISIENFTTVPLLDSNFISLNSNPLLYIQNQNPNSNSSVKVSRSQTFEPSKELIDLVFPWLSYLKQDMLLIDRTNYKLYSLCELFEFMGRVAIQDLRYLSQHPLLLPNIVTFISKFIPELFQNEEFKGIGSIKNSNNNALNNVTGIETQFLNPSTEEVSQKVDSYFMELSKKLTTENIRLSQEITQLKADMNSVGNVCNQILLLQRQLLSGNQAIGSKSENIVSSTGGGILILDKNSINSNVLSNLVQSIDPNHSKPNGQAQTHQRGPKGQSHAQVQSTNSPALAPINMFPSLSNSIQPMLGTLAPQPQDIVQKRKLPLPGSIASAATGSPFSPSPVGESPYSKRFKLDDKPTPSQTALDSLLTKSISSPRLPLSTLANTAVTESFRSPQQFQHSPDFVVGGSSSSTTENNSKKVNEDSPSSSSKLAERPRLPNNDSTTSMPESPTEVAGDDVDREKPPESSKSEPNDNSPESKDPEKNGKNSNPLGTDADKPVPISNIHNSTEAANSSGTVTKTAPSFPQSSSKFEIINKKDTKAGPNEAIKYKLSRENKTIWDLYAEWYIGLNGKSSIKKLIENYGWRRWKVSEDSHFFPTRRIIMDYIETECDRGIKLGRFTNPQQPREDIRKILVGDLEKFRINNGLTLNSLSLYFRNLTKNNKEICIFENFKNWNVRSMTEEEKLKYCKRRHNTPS
- Assay Info: PBM E-score (8-mer binding enrichment) (E-score (-0.5 to 0.5)); higher = stronger / more preferred TF binding
- Condition Description: protein concentration: 100 nM; construct: GST-full length
Over roughly 33,000 sequences, “E-score (-0.5 to 0.5)” has its median near -0.011; the highest 2% begin near 0.28. Only a selection was taken, and the highest values are over-represented in it overall.
Kind request: treat 0.1 as inclusive, so PBM E-score at 0.1 or higher is condition met, anything lower is condition not met.

Example cases with answers are listed next.
{"Entry Sequence": "GAAGTCAC", "Label": "condition not met"}
{"Entry Sequence": "CCAGCTTA", "Label": "condition not met"}
{"Entry Sequence": "ACCGGATG", "Label": "condition met"}

input: API: above_or_equal(metric=PBM E-score, cutoff=0.1) for item AGTGCGCG
output: condition not met

input: API: above_or_equal(metric=PBM E-score, cutoff=0.1) for item ACTGATCA
output: condition not met

input: API: above_or_equal(metric=PBM E-score, cutoff=0.1) for item CGAGCTTC
output: condition met

input: API: above_or_equal(metric=PBM E-score, cutoff=0.1) for item CATGCCAC
output: condition not met

input: API: above_or_equal(metric=PBM E-score, cutoff=0.1) for item CCAGCTTC
output: condition met

input: API: above_or_equal(metric=PBM E-score, cutoff=0.1) for item AGGAAGCA
output: condition met

input: API: above_or_equal(metric=PBM E-score, cutoff=0.1) for item GACAGCTA
output: condition not met

input: API: above_or_equal(metric=PBM E-score, cutoff=0.1) for item ACCGGAAG
output: condition met

input: API: above_or_equal(metric=PBM E-score, cutoff=0.1) for item AGGAATCA
output: condition met

input: API: above_or_equal(metric=PBM E-score, cutoff=0.1) for item ACCGGACG
output: condition met

input: API: above_or_equal(metric=PBM E-score, cutoff=0.1) for item ACCGGATC
output: condition not met

input: API: above_or_equal(metric=PBM E-score, cutoff=0.1) for item AAGAATCA
output: condition met

input: API: above_or_equal(metric=PBM E-score, cutoff=0.1) for item ATGAATCC
output: condition not met

input: API: above_or_equal(metric=PBM E-score, cutoff=0.1) for item AGGAAGCG
output: condition met
